assay: Pharmacokinetics and bioavailability of [14C]-MDL 73,745 in Beagle dogs; type: in vivo, Beagle dog; settings: dog, in vivo, po, 10 mg/kg, oral 10 mg/kg, mean ± SD of 3 dogs
TEST READOUT: Cmax

Consider the compound C[Si](C)(C)c1cccc(C(=O)C(F)(F)F)c1 [MDL 73,745] and give its measured Cmax.
17.7 ng/mL

====

test: Pharmacokinetics and bioavailability of [14C]-MDL 73,745 in Beagle dogs; assay type: in vivo, Beagle dog; details: dog, in vivo, po, 10 mg/kg, oral 10 mg/kg, normalized to 2 mg/kg iv, dog No. 17; read-out: F (AUCpo /AUCiv)
TEST READOUT: bioavailability (%)
Give bare numbers, in %.

Consider the molecule C[Si](C)(C)c1cccc(C(=O)C(F)(F)F)c1 and give its measured bioavailability.
3.4

====

assay: Pharmacokinetics and bioavailability of [14C]-MDL 73,745 in Beagle dogs; format: in vivo, Beagle dog; settings: dog, in vivo, sc, 10 mg/kg, subcutaneous 10 mg/kg, dog No. 19
TEST READOUT: Tmax

Consider the molecule C[Si](C)(C)c1cccc(C(=O)C(F)(F)F)c1 [MDL 73,745] and give its measured Tmax.
4 h

====

test: Pharmacokinetics and bioavailability of [14C]-MDL 73,745 in Beagle dogs; assay type: in vivo, Beagle dog; settings: dog, in vivo, iv, 2 mg/kg, iv 2 mg/kg, mean ± SD of 3 dogs
TEST READOUT: half-life (h)
Answers are plain numbers, in h.

Consider the compound C[Si](C)(C)c1cccc(C(=O)C(F)(F)F)c1 and give its measured half-life.
24.3

====

Test: Pharmacokinetics and bioavailability of [14C]-MDL 73,745 in Beagle dogs
Type: in vivo, Beagle dog
Details: dog, in vivo, sc, 10 mg/kg, subcutaneous 10 mg/kg, normalized to 2 mg/kg iv, dog No. 17; read-out: F
Procedure: Three male Beagle dogs were studied. Animals were fasted 12 h before drug administration but had free access to drinking water. The following single doses of [^14 C]-MDL 73,745 were administered: intravenous (iv): 1 and 2 mg/kg; oral (po): 10 mg/kg; subcutaneous (sc): 10 mg/kg. There was a two week wash-out period between each administration. Drug was administered as a suspension in 0.5% methyl cellulose. […]
TEST READOUT: bioavailability

Consider the molecule C[Si](C)(C)c1cccc(C(=O)C(F)(F)F)c1 and give its measured bioavailability.
41%

====

test: Pharmacokinetics and bioavailability of [14C]-MDL 73,745 in Beagle dogs; assay type: in vivo, Beagle dog; conditions: dog, in vivo, iv, 2 mg/kg, iv 2 mg/kg, dog No. 18
TEST READOUT: half-life (h)
Answers are plain numbers, in h.

Consider the molecule C[Si](C)(C)c1cccc(C(=O)C(F)(F)F)c1 [MDL 73,745] and give its measured half-life.
28.1

====

assay: Pharmacokinetics and bioavailability of [14C]-MDL 73,745 in Beagle dogs; assay type: in vivo, Beagle dog; conditions: dog, in vivo, sc, 10 mg/kg, subcutaneous 10 mg/kg, dog No. 19
TEST READOUT: half-life (h)
One number for each entry, in h.

Consider the molecule C[Si](C)(C)c1cccc(C(=O)C(F)(F)F)c1 [MDL 73,745] and give its measured half-life.
24.5

====

test: Pharmacokinetics and bioavailability of [14C]-MDL 73,745 in Beagle dogs; assay type: in vivo, Beagle dog; details: dog, in vivo, sc, 10 mg/kg, subcutaneous 10 mg/kg, dog No. 18
TEST READOUT: Tmax (h)
Answers are plain numbers, in h.

Consider the compound C[Si](C)(C)c1cccc(C(=O)C(F)(F)F)c1 and give its measured Tmax.
8

// provenance: patent US5693668A
